B1: DVL3 (parent)
chain: HPDPAPFCADNPSELPPPMERTGG

variants of: B1; assay: protein stability index of a GFP-peptide fusion (GPS, HEK-293T) (PSI 1-6); higher = more stable; settings: c terminus: a fixed tail appended;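 further: lentivirally expressed fusions sorted by FACS into six bins by GFP to DsRed ratio, PSI derived from sequencing read proportions per bin multiplied by bin number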
Classification field: enter t for protein stability index values not below 3, f for values below it.

Would you please look over these solved cases?
{"item sequence": "HPDPAAFCADNPSELPPPMERTGG", "answer label": "f"}
{"item sequence": "HPDPAPFCADNMSELPPPMERTGG", "answer label": "t"}
{"item sequence": "HYDPAPFCADNPSELPPPMERTGG", "answer label": "t"}
{"item sequence": "HPDPAPFCADNPSELDPPMERTGG", "answer label": "f"}
{"item sequence": "HPRPAPFCADNPSELPPPMERTGG", "answer label": "t"}

Kindly determine if protein stability index recorded for HCDPAPFCADNPSELPPPMERTGG is above or exactly 3. f

Could you verify whether the entry HPDPAPFCADNPSELPPKMERTGG shows protein stability index of no less than 3? f

Identify whether the reported protein stability index of the following variant is 3 or greater: HPDPAPFCADNPSELPPMMERTGG f

Record LPDPAPFCADNPSELPPPMERTGG ; criterion: protein stability index no lower than 3. Met? t

Confirm if protein stability index reported for the variant HPDPAPFCADNPSELPPPMERVGG is 3 or above. f
